Molecular target: human CD40 (human, UniProt P25942 21-193, limits assumed)
Sequence (P25942 21-193 limits assumed): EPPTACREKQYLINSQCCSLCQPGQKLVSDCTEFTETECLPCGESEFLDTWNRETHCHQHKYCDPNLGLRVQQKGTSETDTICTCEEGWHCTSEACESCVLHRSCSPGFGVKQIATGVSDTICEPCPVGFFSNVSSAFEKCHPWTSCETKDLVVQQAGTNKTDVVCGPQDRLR
Test: Octet
Can you tell me koff for the items I'm about to list?
Reply numerically in s⁻¹, unit not repeated.

Sample 29H10 (antibody, V domains shown, also called 4877-1) VH: QVQLVQSGAEVTKPGASVKVSCKASGYTFAGYYMHWVRQAPGQGLEWMGWINPHSGGTNYAQKFQDRVTMTRDTSINTAYMELSRLRSDDTAVYYCARERISMVRGVGHNWFAPWGQGTLVTVSS VL: DIQMTQSPSSLSASVGDRVTITCRASQDISNNLAWFQQKPGKPPKSLMYAASSLHSGVPSTFSGSGSGTDFTFTISSLQPEDFATYYCQQYNSYPLTFGGGTKVEIRR — what was its koff?
0.000164

For 33H6 (antibody, IgG4, V domains shown, also called 4883-1) VH: QVQLVQSGAEVKKPGASVKVSCKASGYTFPGYYMYWLRQAPGQGLEWMGWINPDSGDTNYAQKFQGRVTMTRDTSISTAFMELSRLRSDDTAVYYCAREKPRYFDSFYYYLMDVWGQGTTVTVSS VL: DIQMTQSPSSLSASVGDRVTITCRAGQNISRHLNWYQQNPGKAPKVLIHPASSLPSGVPSRFSGSGSGTDFSLTISSLQPEDFGTYFCQQSYSTPPTFGGGTKVELKR , what is its reported koff?
0.00068
